target or test system: Macrophage migration inhibitory factor (Homo sapiens)
Sequence (P14174 whole entry): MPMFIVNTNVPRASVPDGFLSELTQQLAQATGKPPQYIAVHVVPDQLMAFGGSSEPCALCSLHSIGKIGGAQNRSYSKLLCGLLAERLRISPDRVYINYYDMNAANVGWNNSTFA
measurement notes: Inhibition of macrophage migration inhibitory factor tautomerase activity in human Jurkat T cells using L-dopachrome methyl ester as substrate incubated for 30 mins prior to substrate addition measured for 2 mins by spectrophotometric analysis
Assay type: cell-based
// boundary case: IC50 equal to 2 µM maps to no; strictly smaller maps to yes

>>> print(df.to_string())
                                    molecule  classification
 0          C=CCN=C=S [ALLYL ISOTHIOCYANATE]             yes
 1            Oc1ccc(C(N=C=S)c2ccc(O)cc2)cc1              no
 2        N#CSCc1ccccc1 [BENZYL THIOCYANATE]              no
 3  S=C=NCCCCCCc1ccccc1 [PHENYLHEXYL ISOTHIOCYANATE]              no
 4  C[S+]([O-])CCCCN=C=S (configuration not stated) [SULFORAPHANE]              no
 5                       S=C=NCCc1ccc(Cl)cc1             yes
 6  CCC(N=C=S)c1ccccc1 (configuration not stated)              no
 7  S=C=NCCCCc1ccccc1 [PHENYLBUTYL ISOTHIOCYANATE]             yes
 8  CCC(N=C=S)c1ccc(O)cc1 (configuration not stated)              no
 9                       Oc1ccc(CCN=C=S)cc1O              no
10                        COc1ccc(CN=C=S)cc1              no
11                         Fc1ccc(CN=C=S)cc1             yes
12                              OCCCCCCN=C=S              no
13                          S=C=NCCCc1ccccc1             yes
14  CCC(N=C=S)c1ccc(OC)cc1 (configuration not stated)             yes
15  CC(CN=C=S)c1ccc(O)cc1 (configuration not stated)              no
16                NS(=O)(=O)c1ccc(CN=C=S)cc1             yes
17                  FC(F)(F)c1cccc(CN=C=S)c1              no
18                 FC(F)(F)c1ccc(CCN=C=S)cc1              no
19    O=C=NCCc1ccccc1 [PHENETHYL ISOCYANATE]              no
20                     S=C=NCc1ccc2c(c1)OCO2              no
21                 FC(F)(F)c1cccc(CCN=C=S)c1              no
